Assay: qHTS assay to identify small molecule phospholipidosis (PLD) inducers (AID 1259344)
Conditions: HepG2 phospholipidosis, LipidTOX Red imaging, 24 h; series mostly up to 38.3 µM
Inconclusive results are not listed. Calls of active or inactive are those of the source. Calls come from the whole dose curve; as a rule, active = well fitted activation curve with a large enough effect; inconclusive = small, poorly fitted or top-dose-only effect; inactive = flat fitted curve, though single readings scatter.
MEASURE_NAME: PLD induction

[[record]]
compound = "COC(=O)CC[C@H](N)C(=O)O"
assay_value = "inactive"

[[record]]
compound = "COc1cc(/C=C/C(=O)N2CCN(CC(=O)N3CCCC3)CC2)cc(OC)c1OC"
assay_value = "inactive"

[[record]]
compound = "CC(=O)Nc1ccc(NC(=S)NC(=O)c2ccc(C(C)(C)C)cc2)cc1"
assay_value = "inactive"

[[record]]
compound = "CCCCCCCCCCCCCCCC(=O)OC[C@@H](O)[C@H]1OC[C@H](O)[C@H]1O"
assay_value = "inactive"

[[record]]
compound = "C=CCN1CCCC1CNC(=O)c1cc(S(N)(=O)=O)cc(OC)c1OC (configuration not stated)"
assay_value = "inactive"

[[record]]
compound = "CS(=O)(=O)Nc1cc2occ(NC=O)c(=O)c2cc1Oc1ccccc1"
assay_value = "inactive"


Write down PLD induction measured for item Cc1cccc(Nc2ncccc2C(=O)O)c1C
inactive

Write down PLD induction measured for item C/C(=C(\CCOC(=O)c1ccccc1)SS/C(CCOC(=O)c1ccccc1)=C(/C)N(C=O)Cc1cnc(C)nc1N)N(C=O)Cc1cnc(C)nc1N
inactive

Write down PLD induction measured for item CC(C)N=c1cc2n(-c3ccc(Cl)cc3)c3ccccc3nc-2cc1Nc1ccc(Cl)cc1
inactive

Write down PLD induction measured for item CC[C@@]1(O)C[C@H](O[C@H]2C[C@H](N(C)C)[C@H](O[C@H]3C[C@H](O)[C@H](O[C@H]4CCC(=O)[C@H](C)O4)[C@H](C)O3)[C@H](C)O2)c2c(cc3c(c2O)C(=O)c2c(O)cccc2C3=O)[C@H]1C(=O)OC
inactive

Write down PLD induction measured for item CCC(=O)O[C@@H]1CC(=O)O[C@H](C)C/C=C/C=C/[C@H](O)[C@H](C)C[C@H](CC=O)[C@H](O[C@@H]2O[C@H](C)[C@@H](O[C@H]3C[C@@](C)(O)[C@@H](OC(=O)CC)[C@H](C)O3)[C@H](N(C)C)[C@H]2O)[C@H]1OC
inactive

----------
Molecular target: Nuclear receptor subfamily 1 group I member 2 (Homo sapiens) (UniProt O75469)
Assay: CYP3A4 induction through human pregnane X receptor (PXR) by small molecules, qHTS assay (AID 1346984); note: nearly all actives have a fitted effect of over 40% in size
Details: DPX-2 HepG2 PXR, CYP3A4-luciferin luminescence, 24 h; series mostly up to 46.1 µM
Records with an inconclusive call do not appear. Active and inactive are the calls of the source. Calls follow the shape of the dose curve; as a rule, active = well fitted activation curve with a large enough effect in the repeat runs; inconclusive = weak or mixed curves; inactive = no such curve, though single readings can be large or run the other way.
Output constraint: value belongs to 1 (yes) (active), 0 (no) (inactive)

Record request — test call for C[Se]CCC(N)C(=O)O (stereo unspecified)
0 (no)

Record request — test call for OCCN1CCN(CC/C=C2/c3ccccc3Sc3ccc(Cl)cc32)CC1
0 (no)

Record request — test call for CC(CN1c2ccccc2Sc2cccnc21)N(C)C (stereo unspecified)
1 (yes)

Record request — test call for CNC(=O)c1c(I)c(C(=O)NCC(=O)Nc2c(I)c(C(=O)O)c(I)c(C(=O)NCCO)c2I)c(I)c(N(C)C(C)=O)c1I
0 (no)

Record request — test call for CC(C)(S)[C@@H](N)C(=O)O
0 (no)

Record request — test call for CCCCCc1ccc(C)cc1O
0 (no)

Record request — test call for O=C(COc1ccc(Cl)cc1)OCCNC12CC3CC(CC(C3)C1)C2
0 (no)

Record request — test call for CCOC(=O)C1=C(COCCN)NC(C)=C(C(=O)OC)C1c1ccccc1Cl (stereo unspecified)
1 (yes)

Record request — test call for C=CCSSSCC=C
0 (no)

Record request — test call for C=C1CC[C@@H]2[C@](C)(CO)[C@H](O)CC[C@@]2(C)[C@@H]1C/C=C1/C(=O)OC[C@H]1O
0 (no)

Record request — test call for CNCC(O)c1ccc(OC(=O)C(C)(C)C)c(OC(=O)C(C)(C)C)c1 (stereo unspecified)
0 (no)
